MEASUREMENT_DESCRIPTION: Metabolic stability in human plasma
Type: in vitro ADME
APPLIED_CONDITIONS: 10 μM, 37° C., 30 min
PROPERTY: Percentage remaining (%)
Answers are plain numbers, in %.

Batch request: Percentage remaining per item, same order as input.
1. CCOC(=O)CCC(CP(=O)(O)O)C(=O)OCC (stereo not drawn)
2. CC(C)OC(=O)OC(C)OC(=O)C(CCC(=O)O)CP(=O)(OC(C)OC(=O)OC(C)C)OC(C)OC(=O)OC(C)C (stereo not drawn)
3. CC(C)OC(=O)OCOP(=O)(CC(CCC(=O)O)C(=O)OCC(=O)N(C)C)OCOC(=O)OC(C)C (stereo not drawn)
4. CC(C)OC(=O)OC(C)OP(=O)(CC(CCC(=O)O)C(=O)OCC(=O)N(C)C)OC(C)OC(=O)OC(C)C (stereo not drawn)
5. CCOC(=O)CCC(CP(=O)(OCOC(=O)C(C)(C)C)OCOC(=O)C(C)(C)C)C(=O)OCC (stereo not drawn)
6. COC(=O)CCC(CP(=O)(O)O)C(=O)OC (stereo not drawn)

Output:
1. 81
2. 106
3. 109
4. 98
5. 50
6. 100

* * *

Hi there, I'd appreciate the recorded Percentage remaining for every entry that follows.
MEASUREMENT_DESCRIPTION: Chemical stability in HBSS buffer (pH 7.4) / simulated gastric fluid
Assay type: physicochemical
APPLIED_CONDITIONS: HBSS, 10 μM, 37° C., 30 min
Protocol: The chemical stability of prodrugs was evaluated using simulated gastric fluid (pH 1.2) and Hanks' Balanced Salt Solution (HBSS) buffer (pH 7.4). Briefly, prodrugs were spiked (10 μM) in respective solutions and incubated at 37° C. for 1 h. At predetermined time points (0, 30 and 60 min), aliquots of 100 μL were removed and diluted with 100 μL of water. Prodrug disappearance was monitored using the developed liquid chromatography and tandem mass spectrometry (LC/MS/MS) method described below. […]
Answer as a quantity: numeral, then unit.

Below, 5 compounds whose answers are already recorded.
INSERT INTO measurements (compound, property, reported) VALUES
  ('CCCCOC(=O)c1ccccc1OP(=O)(CC(CCC(=O)OC)C(=O)OC)Oc1ccccc1C(=O)OCCCC (stereo not drawn)', 'Percentage remaining', '100%'),
  ('CCOC(=O)[C@H](Cc1ccccc1)NP(=O)(CC(CCC(=O)OC)C(=O)OC)N[C@@H](Cc1ccccc1)C(=O)OCC (stereo partly drawn)', 'Percentage remaining', '93%'),
  ('COC(=O)CCC(CP(=O)(OCOC(=O)C(C)(C)C)OCOC(=O)C(C)(C)C)C(=O)OC (stereo not drawn)', 'Percentage remaining', '46%'),
  ('COC(=O)CCC(CP(=O)(O)O)C(=O)OC (stereo not drawn)', 'Percentage remaining', '92%'),
  ('COC(=O)CCC(CP(=O)(OCOC(=O)OC(C)C)OCOC(=O)OC(C)C)C(=O)OC (stereo not drawn)', 'Percentage remaining', '101%');

Below: the item to evaluate.
Input: Please report the recorded Percentage remaining for CCOCCOCCOCCOCCOCCOCCOP(=O)(CC(CCC(=O)OC)C(=O)OC)OCCOCCOCCOCCOCCOCCOCC (stereo not drawn) .
Output: 99%

* * *

MEASUREMENT_DESCRIPTION: In vitro metabolic stability screen in plasma and liver subcellular fractions (results in words)
Type: in vitro ADME
APPLIED_CONDITIONS: 60 min incubation
PROPERTY: in vitro metabolic stability

INSERT INTO measurements (compound, reported) VALUES
  ('CCOC(=O)CCC(CP(=O)(O)O)C(=O)OCC (stereo not drawn) [Compound 2]', 'too stable'),
  ('CCOC(=O)CCC(CP(=O)(OCOC(=O)C(C)(C)C)OCOC(=O)C(C)(C)C)C(=O)OCC (stereo not drawn) [Compound 18]', 'too stable'),
  ('CCCOC(=O)CCC(CP(=O)(O)O)C(=O)OCCC (stereo not drawn) [Compound 3]', 'too stable');

* * *

Hi there, I'd appreciate the recorded Percentage remaining for every entry that follows.
MEASUREMENT_DESCRIPTION: Metabolic stability in human plasma
Assay type: in vitro ADME
APPLIED_CONDITIONS: 10 μM, 37° C., 0 min
Answer as a quantity: numeral, then unit.

Below, 6 compounds whose answers are already recorded.
INSERT INTO results (compound, property, reported) VALUES
  ('CC(C)OC(=O)OCOC(=O)C(CCC(=O)O)CP(=O)(OCOC(=O)OC(C)C)OCOC(=O)OC(C)C (stereo not shown) [Compound 10]', 'Percentage remaining', '100%'),
  ('COC(=O)CCC(CP(=O)(O)O)C(=O)OC (stereo not shown) [Compound 1]', 'Percentage remaining', '100%'),
  ('CC(C)OC(=O)OC(C)OC(=O)C(CCC(=O)O)CP(=O)(OC(C)OC(=O)OC(C)C)OC(C)OC(=O)OC(C)C (stereo not shown) [Compound 24]', 'Percentage remaining', '100%'),
  ('CC(C)OC(=O)OC(C)OP(=O)(CC(CCC(=O)O)C(=O)OCC(=O)N(C)C)OC(C)OC(=O)OC(C)C (stereo not shown) [Compound 26]', 'Percentage remaining', '100%'),
  ('CC(C)OC(=O)OCOP(=O)(CC(CCC(=O)O)C(=O)OCC(=O)N(C)C)OCOC(=O)OC(C)C (stereo not shown) [Compound 25]', 'Percentage remaining', '100%'),
  ('CCOC(=O)CCC(CP(=O)(OCOC(=O)C(C)(C)C)OCOC(=O)C(C)(C)C)C(=O)OCC (stereo not shown) [Compound 18]', 'Percentage remaining', '100%');

Below: the item to evaluate.
Input: Please report the recorded Percentage remaining for CCOC(=O)CCC(CP(=O)(O)O)C(=O)OCC (stereo not shown) [Compound 2] .
Output: 100%

* * *

MEASUREMENT_DESCRIPTION: Metabolic stability in human liver microsomes
Assay type: in vitro ADME
APPLIED_CONDITIONS: 10 μM, 37° C., 60 min
Hi there, I'd appreciate the recorded Percentage remaining for every entry that follows.

Below, 4 compounds whose answers are already recorded.
INSERT INTO assay_data (compound, reported) VALUES
  ('CC(C)OC(=O)OC(C)OP(=O)(CC(CCC(=O)O)C(=O)OCC(=O)N(C)C)OC(C)OC(=O)OC(C)C (stereo not shown) [Compound 26]', '81%'),
  ('CCOC(=O)CCC(CP(=O)(O)O)C(=O)OCC (stereo not shown) [Compound 2]', '73%'),
  ('CC(C)OC(=O)OC(C)OC(=O)C(CCC(=O)O)CP(=O)(OC(C)OC(=O)OC(C)C)OC(C)OC(=O)OC(C)C (stereo not shown) [Compound 24]', '8%'),
  ('CC(C)OC(=O)OCOP(=O)(CC(CCC(=O)O)C(=O)OCC(=O)N(C)C)OCOC(=O)OC(C)C (stereo not shown) [Compound 25]', '61%');

Batch request: Percentage remaining per item, same order as input.
1. CC(C)OC(=O)OCOC(=O)C(CCC(=O)O)CP(=O)(OCOC(=O)OC(C)C)OCOC(=O)OC(C)C (stereo not shown) [Compound 10]
2. COC(=O)CCC(CP(=O)(O)O)C(=O)OC (stereo not shown) [Compound 1]
3. CCOC(=O)CCC(CP(=O)(OCOC(=O)C(C)(C)C)OCOC(=O)C(C)(C)C)C(=O)OCC (stereo not shown) [Compound 18]

Output:
1. 0%
2. 96%
3. 0%

* * *

MEASUREMENT_DESCRIPTION: Chemical stability in HBSS buffer (pH 7.4) / simulated gastric fluid
Assay type: physicochemical
APPLIED_CONDITIONS: chemical hydrolysis / HBSS buffer
PROPERTY: chemical stability

INSERT INTO assay_data (compound, property, reported) VALUES
  ('CCCCOC(=O)c1ccccc1OP(=O)(CC(CCC(=O)OC)C(=O)OC)Oc1ccccc1C(=O)OCCCC (stereo not shown)', 'chemical stability', 'stable in HBSS buffer'),
  ('CCOC(=O)[C@H](Cc1ccccc1)NP(=O)(CC(CCC(=O)OC)C(=O)OC)N[C@@H](Cc1ccccc1)C(=O)OCC (stereo partly shown)', 'chemical stability', 'stable in HBSS buffer');

* * *

MEASUREMENT_DESCRIPTION: Metabolic stability in human plasma
Format: in vitro ADME
APPLIED_CONDITIONS: 10 μM, 37° C., 60 min
Hi there, I'd appreciate the recorded Percentage remaining for every entry that follows.
Numbers only, in %.

Below, 5 compounds whose answers are already recorded.
INSERT INTO results (compound, property, reported) VALUES
  ('CCOC(=O)CCC(CP(=O)(O)O)C(=O)OCC (stereo not drawn)', 'Percentage remaining', 59),
  ('CC(C)OC(=O)OC(C)OC(=O)C(CCC(=O)O)CP(=O)(OC(C)OC(=O)OC(C)C)OC(C)OC(=O)OC(C)C (stereo not drawn)', 'Percentage remaining', 75),
  ('CCOC(=O)CCC(CP(=O)(OCOC(=O)C(C)(C)C)OCOC(=O)C(C)(C)C)C(=O)OCC (stereo not drawn)', 'Percentage remaining', 18),
  ('CC(C)OC(=O)OC(C)OP(=O)(CC(CCC(=O)O)C(=O)OCC(=O)N(C)C)OC(C)OC(=O)OC(C)C (stereo not drawn)', 'Percentage remaining', 92),
  ('CC(C)OC(=O)OCOP(=O)(CC(CCC(=O)O)C(=O)OCC(=O)N(C)C)OCOC(=O)OC(C)C (stereo not drawn)', 'Percentage remaining', 76);

Below: the item to evaluate.
Input: Please report the recorded Percentage remaining for COC(=O)CCC(CP(=O)(O)O)C(=O)OC (stereo not drawn) .
Output: 86
